Entry source: patent US20140348836A1

MEASURED_TARGET: human CD40 on cells (human, UniProt P25942 21-277)
Sequence (P25942 21-277): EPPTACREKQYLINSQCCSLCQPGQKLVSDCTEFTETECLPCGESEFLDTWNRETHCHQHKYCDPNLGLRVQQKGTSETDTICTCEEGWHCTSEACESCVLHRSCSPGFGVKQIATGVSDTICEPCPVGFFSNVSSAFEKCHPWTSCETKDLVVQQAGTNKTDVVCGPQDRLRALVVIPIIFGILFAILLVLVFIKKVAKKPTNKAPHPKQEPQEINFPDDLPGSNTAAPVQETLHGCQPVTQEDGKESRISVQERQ
TEST_SUMMARY: cell-based or functional assay
MEASUREMENT_LABEL: Maximum Fold Increase of CD86 on dendritic cells (fold)
Note: unit fold is implicit; provide only the numeric part.

Look up Maximum Fold Increase of CD86 on dendritic cells for this binder: Antibody clone A4 (antibody, human IgG1, lambda, V domains shown, Tested as purified antibody; full chains are assembled here from VH/VL plus these; also called A4 ANTI-CD40 ANTIBODY) VH: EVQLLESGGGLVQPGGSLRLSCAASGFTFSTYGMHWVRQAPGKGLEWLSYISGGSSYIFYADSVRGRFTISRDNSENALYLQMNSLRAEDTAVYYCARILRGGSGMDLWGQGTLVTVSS VL: QSVLTQPPSASGTPGQRVTISCTGSTSNIGAGYKVYWYQQLPGTAPKLLIYGNINRPSGVPDRFSGSKSGTSASLAISGLRSEDEADYYCAAWDDSLSGLVFGGGTKLTVLG
149
